# System: Escherichia coli
# protocol.summary: In vitro antimicrobial activity against Escherichia coli was evaluated by measuring the diameter of zone of inhibition; further: test concentration or dose not given here
# Assay type: functional
quantity.measured: Inhibition
Please give the number followed by its unit.

These recorded examples may help you get a feel for the data.
> print(dat)
                               query.smiles  measured.result
1  Cc1c(C(=O)N/N=C/c2ccc([N+](=O)[O-])cc2)nnc2c3c(-c4ccccc4)c(-c4ccccc4)nnc3nn12             5 mm
2  Cc1c(C(=O)N/N=C/c2ccco2)nnc2c3c(-c4ccccc4)c(-c4ccccc4)nnc3nn12             2 mm
3  Cc1c(C(=O)N/N=C/c2ccc[nH]2)nnc2c3c(-c4ccccc4)c(-c4ccccc4)nnc3nn12             2 mm
4  Cc1c(/C(=N/NC(N)=O)c2ccccc2)nnc2c3c(-c4ccccc4)c(-c4ccccc4)nnc3nn12             3 mm

Prompt: State, in one line, measured Inhibition of `Cc1c(C(=O)N/N=C/c2cccs2)nnc2c3c(-c4ccccc4)c(-c4ccccc4)nnc3nn12`
Completion: 2 mm
